I'd appreciate it if you could supply LD50 at 168 h values for the items below.
EXPERIMENT_SUMMARY: Toxicity in po dosed mouse assessed as mortality after 7 days
TEST_CONDITIONS: in vivo
Lab book: enter the figure in mg/kg, no units written.

compound CC(C)CC(C)/N=C(\NC#N)Nc1ccncc1 (configuration not stated) , LD50 at 168 h observed: 1000

compound CC(C)(C)/N=C(\NC#N)Nc1ccc(Cl)cn1 , LD50 at 168 h observed: 800

compound CC(C)(C)/N=C(\NC#N)Nc1cncc(Br)c1 , LD50 at 168 h observed: 600

compound CCC(/N=C(\NC#N)Nc1ccncc1)C(C)C (configuration not stated) , LD50 at 168 h observed: 600

###

EXPERIMENT_SUMMARY: Toxicity in po dosed mouse assessed as mortality after 7 days
TEST_CONDITIONS: in vivo
EXPERIMENTAL_READOUT: LD50 at 168 h

molecule CCOCC/N=C(\NC#N)Nc1cccnc1 , LD50 at 168 h observed: 600 mg/kg

molecule CC(N/C(=N\C#N)NCc1ccncc1)C(C)(C)C (centres undefined) , LD50 at 168 h observed: > 1000 mg/kg

molecule Cc1cc(C)c(/N=C(\NC#N)NC(C)(C)C)c(C)n1 , LD50 at 168 h observed: > 1000 mg/kg

molecule CC(C)(C)C/N=C(\NC#N)Nc1ccncc1 , LD50 at 168 h observed: 600 mg/kg

molecule CCC(C)(C)N/C(=N\O)Nc1cccnc1 , LD50 at 168 h observed: 600 mg/kg

molecule CCC(C)(C)/N=C(\NC#N)Nc1ccncc1 , LD50 at 168 h observed: 600 mg/kg

molecule Cc1noc(C)c1N/C(=N/C#N)NC(C)C(C)(C)C (centres undefined) , LD50 at 168 h observed: > 1000 mg/kg

molecule CCC(C)(C)N/C(=N\C#N)Nc1ccc(N(C)C)cc1 , LD50 at 168 h observed: > 1000 mg/kg

molecule CCC(C)(C)N/C(=N\C#N)Nc1ccc[n+](C)c1.[I-] , LD50 at 168 h observed: > 1000 mg/kg

molecule CCC(C)(C)N/C(N)=N/C#N , LD50 at 168 h observed: 800 mg/kg

molecule CC(C)C(=O)N(/C(=N\C#N)Nc1cccnc1)C(C)(C)C , LD50 at 168 h observed: > 1000 mg/kg

molecule N#CN/C(=N\C1CCCCC1)Nc1ccccn1 , LD50 at 168 h observed: 1000 mg/kg

molecule CCC(CC)/N=C(\NC#N)Nc1cccnc1 , LD50 at 168 h observed: 600 mg/kg

molecule N#CN/C(=N\C1CC1)Nc1cccnc1 , LD50 at 168 h observed: > 1000 mg/kg

molecule N#CNC(=N)Nc1cccnc1 , LD50 at 168 h observed: > 1000 mg/kg

molecule CC(C)(C)C/N=C(/NC#N)Nc1cccnc1 , LD50 at 168 h observed: > 1000 mg/kg

molecule CCC(C)(C)N/C(=N\c1cnccn1)Nc1cccnc1 , LD50 at 168 h observed: 800 mg/kg

molecule CCC(C)(C)/N=C(\NC#N)Nc1c(C)cc(C)nc1C , LD50 at 168 h observed: 800 mg/kg

molecule CC(C)CCCC(C)N/C(=N\C#N)Nc1ccncc1 (centres undefined) , LD50 at 168 h observed: > 1000 mg/kg

molecule CCC(CC)(CC)/N=C(\NC#N)Nc1ccncc1 , LD50 at 168 h observed: > 1000 mg/kg

molecule CCC(C)(C)/N=C(\Nc1cccnc1)Nc1nccs1 , LD50 at 168 h observed: > 1000 mg/kg

molecule N#CN/C(=N\CCc1ccccc1)Nc1ccncc1 , LD50 at 168 h observed: > 1000 mg/kg

molecule N#CN/C(=N\Cc1ccco1)Nc1cccnc1 , LD50 at 168 h observed: > 1000 mg/kg

molecule CC(/N=C(/NC#N)Nc1cccnc1)C(C)(C)C (centres undefined) , LD50 at 168 h observed: 1000 mg/kg

molecule N#CN/C(=N\C1CCCCCCC1)Nc1ccncc1 , LD50 at 168 h observed: 600 mg/kg

molecule CC(C)(C)N/C(=N\C#N)NCCc1ccccn1 , LD50 at 168 h observed: 800 mg/kg

molecule CC(C)CC(C)(C)/N=C(\NC#N)Nc1cccnc1 , LD50 at 168 h observed: > 1000 mg/kg

molecule CC(C)(N/C(=N\C#N)Nc1ccncc1)c1ccccc1 , LD50 at 168 h observed: > 1000 mg/kg

molecule CCC(C)(C)N/C(=N\C#N)Nc1ccccc1 , LD50 at 168 h observed: > 1000 mg/kg

molecule CC(C)(C)N/C(=N\C#N)Nc1cnc2ccccc2c1 , LD50 at 168 h observed: > 1000 mg/kg

molecule CCCC/N=C(\NC#N)Nc1cccnc1 , LD50 at 168 h observed: > 1000 mg/kg

molecule CC(C)C/N=C(\NC#N)Nc1cccnc1 , LD50 at 168 h observed: > 1000 mg/kg

molecule CC(C)CC/N=C(\NC#N)Nc1cccnc1 , LD50 at 168 h observed: > 1000 mg/kg

molecule CCn1nc(C)cc1N/C(=N/C#N)NC(C)(C)C , LD50 at 168 h observed: > 1000 mg/kg

molecule CCCCC/N=C(\NC#N)Nc1cccnc1 , LD50 at 168 h observed: > 1000 mg/kg

molecule CCC(C)/N=C(\NC#N)Nc1cccnc1 (centres undefined) , LD50 at 168 h observed: > 1000 mg/kg

molecule N#CN/C(=N\C1CCCCC1)Nc1ccncc1 , LD50 at 168 h observed: 600 mg/kg

molecule CCCCCCC/N=C(\NC#N)Nc1cccnc1 , LD50 at 168 h observed: > 1000 mg/kg

molecule N#CN/C(=N\c1ccccc1)Nc1ccncc1 , LD50 at 168 h observed: > 1000 mg/kg

molecule N#CN/C(=N\Cc1ccccc1)Nc1ccncc1 , LD50 at 168 h observed: 600 mg/kg

molecule CCC(C)(C)NC(=NC#N)Nc1cccnc1 , LD50 at 168 h observed: > 1000 mg/kg

molecule CCC(C)(C)N/C(=N\C(=O)C(F)(F)F)Nc1cccnc1 , LD50 at 168 h observed: > 1000 mg/kg

molecule CCOc1ccccc1N/C(=N/C#N)NC(C)(C)CC , LD50 at 168 h observed: > 1000 mg/kg

molecule N#CN/C(=N\Cc1ccccc1)Nc1cccnc1 , LD50 at 168 h observed: > 1000 mg/kg

molecule CC(C)(C)N/C(=N\C#N)NCc1ccccn1 , LD50 at 168 h observed: 600 mg/kg

molecule CC(C)(C)CC(C)(C)/N=C(\NC#N)Nc1cccnc1 , LD50 at 168 h observed: > 1000 mg/kg

molecule CC(C)(C)/N=C(\NC#N)Nc1ccncc1 , LD50 at 168 h observed: > 1000 mg/kg

molecule CCC(C)(C)N/C(=N\C#N)NCc1ccncc1.O , LD50 at 168 h observed: > 1000 mg/kg

molecule CCCN(CCC)S(=O)(=O)/N=C(/Nc1cccnc1)NC(C)(C)CC , LD50 at 168 h observed: > 1000 mg/kg

molecule CCC(C)(C)N/C(=N\C(N)=O)Nc1cccnc1 , LD50 at 168 h observed: > 1000 mg/kg

molecule CCOC(=O)/N=C(/Nc1cccnc1)NC(C)(C)CC , LD50 at 168 h observed: 600 mg/kg

molecule CCC(C)(C)N/C(=N\C#N)Nc1c(C)cccc1C , LD50 at 168 h observed: > 1000 mg/kg

molecule CC(C)(C)N/C(=N\C#N)NCc1cccnc1 , LD50 at 168 h observed: > 1000 mg/kg

molecule CC(NC(=NC#N)Nc1ccccc1)C(C)(C)C (centres undefined) , LD50 at 168 h observed: > 1000 mg/kg

###

EXPERIMENT_SUMMARY: Toxicity in po dosed Sprague-Dawley rat assessed as mortality after 7 days
Type: organism-based
TEST_CONDITIONS: in vivo
The label is yes for LD50 at 168 h below 300 mg/kg and no for LD50 at 168 h equal to or exceeding 300 mg/kg.

[in] Determine if CC(=O)N(/C(=N\C#N)Nc1cccnc1)C(C)(C)C.O shows LD50 at 168 h strictly lower than 300 mg/kg.
[out] no

[in] Determine if CCC(C)(C)NC(=NC#N)Nc1cccnc1 shows LD50 at 168 h strictly lower than 300 mg/kg.
[out] yes

[in] Determine if CC(C)(C)/N=C(/NC#N)Nc1cccnc1 shows LD50 at 168 h strictly lower than 300 mg/kg.
[out] yes

[in] Determine if CCC(C)(C)/N=C(/S)Nc1cccnc1 shows LD50 at 168 h strictly lower than 300 mg/kg.
[out] no

[in] Determine if NNc1nncc2ccccc12 [HYDRALAZINE] shows LD50 at 168 h strictly lower than 300 mg/kg.
[out] yes

Where do these numbers come from? They come from ChEMBL document CHEMBL3272224.
